Data provenance: the NIST ThermoML archive (doi:10.1016/j.fluid.2009.01.011)

assay.explanation: activity coefficient (dimensionless); of the first substance listed, at infinite dilution; xn = mol fraction of the nth substance listed
measurement.setup: 328.15 K; Liquid; Chromatography; x1 = 0

{"columns": ["molecule", "activity coefficient"],
 "data": [
  ["C=CCCC [1-pentene] + CCCC[N+]1(C)CCCC1.O=S(=O)([O-])C(F)(F)F", 14.4],
  ["c1ccccc1 [benzene] + CCCC[N+]1(C)CCCC1.O=S(=O)([O-])C(F)(F)F", 1.48],
  ["Cc1ccccc1 [toluene] + CCCC[N+]1(C)CCCC1.O=S(=O)([O-])C(F)(F)F", 2.25],
  ["CCCCCCCCC [nonane] + CCCC[N+]1(C)CCCC1.O=S(=O)([O-])C(F)(F)F", 100],
  ["Cc1ccccc1C [1,2-dimethylbenzene] + CCCC[N+]1(C)CCCC1.O=S(=O)([O-])C(F)(F)F", 2.95],
  ["C#CCCCCCC [1-octyne] + CCCC[N+]1(C)CCCC1.O=S(=O)([O-])C(F)(F)F", 7.76],
  ["Cc1cccc(C)c1 [1,3-dimethylbenzene] + CCCC[N+]1(C)CCCC1.O=S(=O)([O-])C(F)(F)F", 3.47],
  ["C1CCCCC1 [cyclohexane] + CCCC[N+]1(C)CCCC1.O=S(=O)([O-])C(F)(F)F", 19.7],
  ["CCCCCC [hexane] + CCCC[N+]1(C)CCCC1.O=S(=O)([O-])C(F)(F)F", 42.2],
  ["C1CCCCCC1 [cycloheptane] + CCCC[N+]1(C)CCCC1.O=S(=O)([O-])C(F)(F)F", 23.1],
  ["CCCCCCCCCC [decane] + CCCC[N+]1(C)CCCC1.O=S(=O)([O-])C(F)(F)F", 143],
  ["c1ccsc1 [thiophene] + CCCC[N+]1(C)CCCC1.O=S(=O)([O-])C(F)(F)F", 1.08],
  ["C#CCCCC [1-hexyne] + CCCC[N+]1(C)CCCC1.O=S(=O)([O-])C(F)(F)F", 3.85],
  ["COC(C)(C)C [2-methoxy-2-methylpropane] + CCCC[N+]1(C)CCCC1.O=S(=O)([O-])C(F)(F)F", 5.63],
  ["CO [methanol] + CCCC[N+]1(C)CCCC1.O=S(=O)([O-])C(F)(F)F", 0.628],
  ["C#CCCCCC [1-heptyne] + CCCC[N+]1(C)CCCC1.O=S(=O)([O-])C(F)(F)F", 5.47],
  ["C#CCCC [1-pentyne] + CCCC[N+]1(C)CCCC1.O=S(=O)([O-])C(F)(F)F", 2.82]
]}
